testSystem: HLA-A*2401 (human)
protocolText: competition with 125I-labelled probe peptide for purified HLA, gel filtration
metric: relative binding ratio (IC50 of standard peptide / IC50 of test peptide)
Returns: the value as a bare number; no unit string appended.

Qu. Sample DFIATLGKL [PAP position 186, 9 amino acids] — what was its relative binding ratio (IC50 of standard peptide / IC50 of test peptide)?
Ans. 0.0002

Qu. Sample CYASGWGSI [Kallikrein position 152, 9 amino acids] — what was its relative binding ratio (IC50 of standard peptide / IC50 of test peptide)?
Ans. 0.17

Qu. Sample EYIRKRYRKF [PAP position 83, 10 amino acids] — what was its relative binding ratio (IC50 of standard peptide / IC50 of test peptide)?
Ans. 0.0067

Qu. Sample IWSKVYDPL [PAP position 205, 9 amino acids] — what was its relative binding ratio (IC50 of standard peptide / IC50 of test peptide)?
Ans. 0.0024

Qu. Sample AMTNLAALF [PAP position 116, 9 amino acids] — what was its relative binding ratio (IC50 of standard peptide / IC50 of test peptide)?
Ans. 0.015

Qu. Sample GWGSIEPEEF [Kallikrein position 156, 10 amino acids] — what was its relative binding ratio (IC50 of standard peptide / IC50 of test peptide)?
Ans. 0.0001

Qu. Sample HYRKWIKDTI [Kallikrein position 248, 10 amino acids] — what was its relative binding ratio (IC50 of standard peptide / IC50 of test peptide)?
Ans. 0.055

Qu. Sample GFLFLLFFWL [PAP position 17, 10 amino acids] — what was its relative binding ratio (IC50 of standard peptide / IC50 of test peptide)?
Ans. 0.0007

Qu. Sample GFLFLLFFW [PAP position 17, 9 amino acids] — what was its relative binding ratio (IC50 of standard peptide / IC50 of test peptide)?
Ans. 0.0016

Qu. Sample FFWLDRSVL [PAP position 23, 9 amino acids] — what was its relative binding ratio (IC50 of standard peptide / IC50 of test peptide)?
Ans. 0.0017

Qu. Sample LFFWLDRSVL [PAP position 22, 10 amino acids] — what was its relative binding ratio (IC50 of standard peptide / IC50 of test peptide)?
Ans. 0.0045
